target_system: Serine/threonine-protein kinase Sgk1 (Homo sapiens) (UniProt O00141)
Sequence (O00141 whole entry): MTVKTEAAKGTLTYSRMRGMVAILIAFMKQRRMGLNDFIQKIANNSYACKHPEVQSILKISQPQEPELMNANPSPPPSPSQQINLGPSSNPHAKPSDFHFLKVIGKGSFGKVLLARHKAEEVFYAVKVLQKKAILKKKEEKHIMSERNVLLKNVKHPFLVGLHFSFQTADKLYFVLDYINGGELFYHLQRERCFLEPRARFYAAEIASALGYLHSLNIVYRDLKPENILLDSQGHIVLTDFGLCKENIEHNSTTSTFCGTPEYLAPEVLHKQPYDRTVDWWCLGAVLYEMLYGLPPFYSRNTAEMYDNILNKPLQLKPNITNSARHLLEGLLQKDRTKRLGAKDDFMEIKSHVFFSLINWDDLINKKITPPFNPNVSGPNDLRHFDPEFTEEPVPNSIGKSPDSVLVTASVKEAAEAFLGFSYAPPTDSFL
test_context: at 0.1 µM
Description: GSK_PKIS: SGK1 mean inhibition at 0.1 uM [Nanosyn]
recorded_metric: inhibition (%)

> print(dat)
                               input.smiles                             target.system  reading
1  COc1cc(N2CCN(C(C)C)CC2)ccc1Nc1nc(Nc2ccc(F)cc2C(=O)NC[C@@H](O)CO)c2cc[nH]c2n1  Serine/threonine-protein kinase Sgk1 (Homo sapiens) (UniProt O00141)     4.42
2  CS(=O)(=O)CCNCc1ccc(-c2ccc3ncnc(Nc4ccc(OCc5ccccc5)c(Br)c4)c3c2)o1  Serine/threonine-protein kinase Sgk1 (Homo sapiens) (UniProt O00141)     1.16
3  Fc1ccc(-c2ncn(C3CCNCC3)c2-c2ccnc(Oc3ccc(F)c(F)c3)n2)cc1  Serine/threonine-protein kinase Sgk1 (Homo sapiens) (UniProt O00141)     1.79
4  O=C(Nc1n[nH]c2nc(-c3ccc(O)cc3)c(Br)cc12)C1CC1  Serine/threonine-protein kinase Sgk1 (Homo sapiens) (UniProt O00141)     3.83

---

target_system: Dual specificity protein kinase CLK2 (Homo sapiens)
test_context: at 0.1 µM
Description: GSK_PKIS: CLK2 mean inhibition at 0.1 uM [Nanosyn]
recorded_metric: inhibition

> print(dat)
                               input.smiles  reading
1       Fc1ccc(-c2nc3n(c2-c2ccncc2)CCS3)cc1    1.78%
2  COc1cc2ncn(-c3cc(OCCc4ccccc4)c(C(N)=O)s3)c2cc1OC     1.3%
3  C[C@@H](Oc1cc(-n2cnc3ccc(OCC4CCN(C)CC4)cc32)sc1C(N)=O)c1ccccc1Cl    1.46%
4  CCN(CC)Cc1ccc(Nc2nccc(-c3cnn4ncccc34)n2)cc1    50.1%

---

# Lookup of reported inhibition keyed by entry
target_system: Calcium/calmodulin-dependent protein kinase type II subunit delta (Homo sapiens);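 also: mean percent inhibition of CAMK2D, from screening of the GSK Published Kinase Inhibitor Set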
test_context: at 1 µM
recorded_metric: inhibition (%)

> print(dat)
                                input.smiles                             target.system  recorded.metric  value.unit  reading
 1  COc1cccc(-n2cnc3c(N/N=C/c4ccncc4)ncnc32)c1  Calcium/calmodulin-dependent protein kinase type II subunit delta (Homo sapiens)       inhibition           %    -1.61
 2  CCN(CC)Cc1ccc(Nc2nccc(-c3cnn4ncccc34)n2)cc1  Calcium/calmodulin-dependent protein kinase type II subunit delta (Homo sapiens)       inhibition           %     14.3
 3  COc1cc(Nc2ncc3c(C)nc(-c4cccc(C(F)(F)F)c4)n3n2)cc(OC)c1OC  Calcium/calmodulin-dependent protein kinase type II subunit delta (Homo sapiens)       inhibition           %     5.08
 4  c1ccc(Oc2ccc(Nc3ncc(-c4ccccc4)o3)cc2)cc1  Calcium/calmodulin-dependent protein kinase type II subunit delta (Homo sapiens)       inhibition           %     0.58
 5     COc1cc(Nc2ncc(-c3ccccc3)o2)cc(OC)c1OC  Calcium/calmodulin-dependent protein kinase type II subunit delta (Homo sapiens)       inhibition           %     5.55
 6     NCc1ccc(-n2c(-c3nonc3N)nc3cnccc32)cc1  Calcium/calmodulin-dependent protein kinase type II subunit delta (Homo sapiens)       inhibition           %     15.2
 7  N#Cc1ccc(Oc2nccc(-c3c(-c4ccc(F)cc4)ncn3C3CCNCC3)n2)cc1  Calcium/calmodulin-dependent protein kinase type II subunit delta (Homo sapiens)       inhibition           %     5.08
 8  COc1ccc(-c2ccc3c(NC(=O)C4CC4)n[nH]c3n2)cc1  Calcium/calmodulin-dependent protein kinase type II subunit delta (Homo sapiens)       inhibition           %      1.7
 9  NS(=O)(=O)c1ccc(Nc2cc(-c3ccc(O)c(F)c3)n[nH]2)cc1  Calcium/calmodulin-dependent protein kinase type II subunit delta (Homo sapiens)       inhibition           %     1.69
10  Cc1nnc(-c2ccc(C)c(-c3ccc(C(=O)NCc4ccc(Cl)cc4)cc3)c2)o1  Calcium/calmodulin-dependent protein kinase type II subunit delta (Homo sapiens)       inhibition           %     2.68
11  CCS(=O)(=O)c1ccc(OC)c(Nc2ncc(-c3ccccc3Cl)o2)c1  Calcium/calmodulin-dependent protein kinase type II subunit delta (Homo sapiens)       inhibition           %     1.43
12  Fc1ccc(-c2ncn(CCCN3CCOCC3)c2-c2ccncc2)cc1  Calcium/calmodulin-dependent protein kinase type II subunit delta (Homo sapiens)       inhibition           %     2.85
13  Cc1ccc(NC(=O)c2ccoc2)cc1-c1ccc(C(=O)NCC2CC2)cc1  Calcium/calmodulin-dependent protein kinase type II subunit delta (Homo sapiens)       inhibition           %    -0.48
14  CN(C)CCOc1ccc(-c2cc(-c3ccc4c(c3)CCC4=NO)c(-c3ccncc3)o2)cc1  Calcium/calmodulin-dependent protein kinase type II subunit delta (Homo sapiens)       inhibition           %     2.18
15  NC(=O)Cc1ccccc1Oc1nccc(-c2c(-c3ccc(F)cc3)ncn2C2CCNCC2)n1  Calcium/calmodulin-dependent protein kinase type II subunit delta (Homo sapiens)       inhibition           %     2.58
16  COc1ccc2cc(-c3c(-c4ccncc4)nc(-c4ccc(S(C)(=O)=O)cc4C)n3C)ccc2c1  Calcium/calmodulin-dependent protein kinase type II subunit delta (Homo sapiens)       inhibition           %     3.21
17  NC(=O)c1cc(-c2ccc(F)cc2)cc(-c2ccncc2)c1N  Calcium/calmodulin-dependent protein kinase type II subunit delta (Homo sapiens)       inhibition           %     3.98
18  CCC(=O)Nc1ccc(C)c(-c2ccc(C(=O)NCC3CC3)cc2)c1  Calcium/calmodulin-dependent protein kinase type II subunit delta (Homo sapiens)       inhibition           %     4.75
19  FC(F)(F)c1cccc(Nc2nccc(-c3cnn4nc(-c5ccccc5)ccc34)n2)c1  Calcium/calmodulin-dependent protein kinase type II subunit delta (Homo sapiens)       inhibition           %    -1.12
20  O=C(Nc1n[nH]c2nc(-c3ccc(O)cc3)c(Br)cc12)C1CC1  Calcium/calmodulin-dependent protein kinase type II subunit delta (Homo sapiens)       inhibition           %     20.1
21  C#Cc1cccc(Nc2ncnc3ccc(OCCCCNCCS(C)(=O)=O)cc23)c1  Calcium/calmodulin-dependent protein kinase type II subunit delta (Homo sapiens)       inhibition           %     5.51
22              CCc1nccc2c1nc(-c1nonc1N)n2CC  Calcium/calmodulin-dependent protein kinase type II subunit delta (Homo sapiens)       inhibition           %     3.76
23  Fc1ccc(-c2ncn(C3CCNCC3)c2-c2ccnc(Oc3ccc(Oc4ccccc4)cc3)n2)cc1  Calcium/calmodulin-dependent protein kinase type II subunit delta (Homo sapiens)       inhibition           %     10.3
24       Fc1ccc(-c2c(-c3ccncc3)nc3n2CCS3)cc1  Calcium/calmodulin-dependent protein kinase type II subunit delta (Homo sapiens)       inhibition           %     2.01
25    O=C1Nc2ccccc2/C1=C/Nc1ccc(-n2cncn2)cc1  Calcium/calmodulin-dependent protein kinase type II subunit delta (Homo sapiens)       inhibition           %     6.83
26  C/C(Nc1ccc(S(N)(=O)=O)cc1)=C1/C(=O)Nc2ccccc21  Calcium/calmodulin-dependent protein kinase type II subunit delta (Homo sapiens)       inhibition           %      3.2
27  COc1cc(Nc2ncc3c(C)nc(-c4cccc(Oc5ccccc5)c4)n3n2)cc(OC)c1OC  Calcium/calmodulin-dependent protein kinase type II subunit delta (Homo sapiens)       inhibition           %     3.83
28  COc1cc2ncn(-c3cc(OCCc4ccccc4)c(C(N)=O)s3)c2cc1OC  Calcium/calmodulin-dependent protein kinase type II subunit delta (Homo sapiens)       inhibition           %     3.66
29  COC(=O)Nc1nc2ccc(Sc3ccc(NC(=O)Nc4cc(C(F)(F)F)ccc4F)cc3)cc2[nH]1  Calcium/calmodulin-dependent protein kinase type II subunit delta (Homo sapiens)       inhibition           %     2.79
30  COc1cc2ncn(-c3cc(OCc4ccccc4C(F)(F)F)c(C(C)=O)s3)c2cc1OC  Calcium/calmodulin-dependent protein kinase type II subunit delta (Homo sapiens)       inhibition           %     1.91
31  CN(C)CCCNc1nccc(-c2c(-c3ccc(F)cc3)nn3cc(C(F)(F)F)ccc23)n1  Calcium/calmodulin-dependent protein kinase type II subunit delta (Homo sapiens)       inhibition           %     4.37
